# System: HepG2
# experiment summary: cell viability relative to DMSO; higher = less toxic
# conditions: 72 h; 100 nM
measure: cell viability (%)
Give bare numbers, in %.

CCn1c(O)nnc1-c1ccc(Cl)cc1 [5-(4chlorophenyl)-4-ethyl-2,4-dihydro-3H-1,2,4-triazol-3-one] :: 102

Batch request: cell viability for each of the following molecules.
1. COC[C@@H](c1ccc(C(F)(F)F)cc1)N1CCN(C2(C)CCN(C(=O)c3c(C)ncnc3C)CC2)C[C@@H]1C [vicriviroc]
2. Cc1cc(NCCO)nc(-c2ccc(Br)cc2)n1
3. CNC(=O)c1cccc2cc(Oc3ccnc4cc(OCC5(N)CC5)c(OC)cc34)ccc12 [lucitanib]
4. CC(C)c1ccc(NC(=O)Cn2cnc3c2c(=O)n(C)c(=O)n3C)cc1
5. OCCN1CCN(CCCN2c3ccccc3Sc3ccc(C(F)(F)F)cc32)CC1 [fluphenazine]
6. Nc1ncnc2c1c(-c1ccc(Cl)cc1)nn2-c1cccc(-c2cnnn2Cc2cccc(-c3ccccc3)c2)c1 [KB-SRC-4]

OUT:
1: 98.9; 2: 86.9; 3: 106; 4: 93.4; 5: 95.9; 6: 99.1

Below are 8 molecules. Give each one its cell viability.
1. Nc1n[nH]c2nc3ccccc3nc12 [CDK1-5-inhibitor]
2. CCCCCCCCCCCCCCCC[n+]1ccn(Cc2ccccc2)c1C [NH125]
3. COC[C@H](C)Oc1cc(O[C@@H](C)Cc2ccccc2)cc(C(=O)Nc2ccc(C(=O)O)cn2)c1 [GKA-50]
4. Clc1ccc(C2=CCC[C@H]3CC[C@@H]2N3)cn1 [UB-165]
5. O[C@H]1CC[C@H](Nc2ncc3nc(Nc4c(F)cc(F)cc4F)n([C@H]4CCOC4)c3n2)CC1 [CC-930]
6. Oc1ccc(Cl)c2cccnc12 [cloxyquin]
7. O=[N+]([O-])c1ncc[nH]1 [azomycin-(2-nitroimidazole)]
8. C[C@@H](c1nc(-c2ccc(C#N)cc2)cs1)[C@](O)(Cn1cncn1)c1cc(F)ccc1F [isavuconazole]

OUT:
107
97.2
99.5
93.1
93.5
116
102
93.8

For the 3 molecules below, give their cell viability values.
1. COc1cc(C(C)=O)ccc1OCCCN1CCC(c2noc3cc(F)ccc23)CC1 [iloperidone]
2. COc1cc2ncnc(Sc3nnc(C)s3)c2cc1OC [SKLB1002]
3. CCOC(=O)C1=C[C@]2(CC)CCCN3CCc4c(n1c1ccccc41)[C@@H]32 [vinpocetine]

OUT:
[94.4, 105, 99.7]

###

# System: Caco-2
# experiment summary: cell viability relative to DMSO; higher = less toxic
# conditions: 72 h; 1000 nM
Could you please report measured cell viability for the items listed next?

CC(C(=O)O)c1cccc(Oc2ccccc2)c1 (centres undefined) :: 101%
CN(C)C(=O)COC(=O)Cc1ccc(OC(=O)c2ccc(NC(=N)N)cc2)cc1 [camostat-mesilate] :: 105%
COC(=O)c1cc(OC)c2c(c1-c1c(C(=O)OC)cc(OC)c3c1OCO3)OCO2 [bifendate] :: 102%
CCCCS(=O)(=O)N[C@@H](Cc1ccc(OCCCCC2CCNCC2)cc1)C(=O)O :: 104%
O=C(O)c1ccc2nc(-c3cc(Cl)cc(Cl)c3)oc2c1 :: 90.2%

Hi! Can you tell me cell viability for each of these compounds?
1. CC(=O)OCC(=O)[C@@]12OC3(CCCC3)O[C@@H]1C[C@H]1[C@@H]3CCC4=CC(=O)C=C[C@]4(C)[C@@]3(F)[C@@H](O)C[C@@]12C [amcinonide]
2. C[C@@H](N)c1ccc(C(=O)Nc2ccnc3[nH]ccc23)cc1
3. CCn1cc(C(=O)O)c(=O)c2cnc(N3CCNCC3)nc21
4. Nc1ncnc2c1c(-c1ccc(Cl)cc1)nn2-c1cccc(-c2cnnn2Cc2cccc(-c3ccccc3)c2)c1

OUT:
1. 107%
2. 105%
3. 99.4%
4. 93.6%

###

Exercise: for every item that follows, state its recorded cell viability.
# System: U2OS
# experiment summary: cell viability relative to DMSO; higher = less toxic
# conditions: 72 h; 100 nM
Give bare numbers, in %.

O=C(c1ccc(-c2ccc(Cl)cc2)o1)N(Cc1ccccn1)c1ccc(N2CCNCC2)cc1 :: 95.9

Required: cell viability, one value per molecule below.
1. CCn1c(O)nnc1-c1ccc(Cl)cc1 [5-(4chlorophenyl)-4-ethyl-2,4-dihydro-3H-1,2,4-triazol-3-one]
2. CCC(Cc1c(I)cc(I)c(N)c1I)C(=O)O (stereo not drawn)
3. CC(=O)OCC(=O)[C@@]12N=C(C)O[C@@H]1C[C@H]1[C@@H]3CCC4=CC(=O)C=C[C@]4(C)[C@H]3[C@@H](O)C[C@@]12C

OUT:
[99.8, 97.9, 99.7]

###

Can you tell me cell viability for the items I'm about to list?
# Tested on: U2OS
# experiment summary: cell viability relative to DMSO; higher = less toxic
# conditions: 72 h; 1000 nM
Answers are plain numbers, in %.

Known results for molecules:
CC(=O)Nc1ccc(OC[C@](C)(O)C(=O)Nc2ccc([N+](=O)[O-])c(C(F)(F)F)c2)cc1 [andarine] :: 98
C[C@@H](O)[C@H]1C(=O)N2C(C(=O)O)=C(S[C@@H]3CN[C@H](CNS(N)(=O)=O)C3)[C@H](C)[C@H]12 [doripenem] :: 95.2
Cc1cc(-c2cc(OC(=O)c3ccccc3)ccc2Cl)cc2nnc(Nc3ccc(OCCN4CCCC4)cc3)nc12 :: 100
NCCCCCc1c[nH]cn1 [impentamine] :: 98.3
Nc1nccc2c1ncn2C1C=C(CO)C(O)C1O (stereo not drawn) [3-deazaneplanocin-A] :: 69.3

Could you tell me cell viability for each of these molecules? They are listed below.
1. NS(=O)(=O)OC[C@@H]1C[C@@H](n2ccc3c(N[C@H]4CCc5ccccc54)ncnc32)C[C@@H]1O [pevonedistat]
2. Nc1c(CC(=O)O)cccc1C(=O)c1ccccc1 [amfenac]
3. Nc1n[nH]c2nc3ccccc3nc12 [CDK1-5-inhibitor]
4. C[C@@H](N)[C@H]1CC[C@H](C(=O)Nc2ccncc2)CC1

OUT:
71
97.2
100
102

I need cell viability for every entry listed below, if you could help.
1. Oc1cc(O)c(Cl)cn1 [gimeracil]
2. COC(=O)/C=C/C(=O)OCCN1C(=O)CCC1=O [diroximel-fumarate]

OUT:
98.5
103

Would you be so kind as to report cell viability for each listed record?
1. COCCN1CCN(Cc2ccc(-c3n[nH]c4c3C(=O)c3c(NC(=O)NN5CCOCC5)cccc3-4)cc2)CC1
2. CCCOc1ccc2[nH]c(NC(=O)OC)nc2c1 [oxibendazole]
3. CC(Cc1ccccc1)NCCC(c1ccccc1)c1ccccc1 (stereo not drawn) [prenylamine]

OUT:
1. 9.8
2. 102
3. 100

I need cell viability for every entry listed below, if you could help.
1. CCCOc1ccc(Br)cc1-c1cc(-c2ccc(Cl)cc2)[nH]c1-c1ccncc1
2. CC(C)N(CCNC(=O)CN1CCCC1=O)C(C)C [pramiracetam]
3. O=[N+]([O-])c1cc(Cl)ccc1S(=O)(=O)N1CCN(Cc2ccccc2)CC1 [RN-1747]

OUT:
1. 97.5
2. 95.6
3. 102

Value sought for every listed molecule: cell viability.
1. OC[C@H]1NC[C@@H](O)[C@@H](O)[C@@H]1O [1-deoxymannojirimycin]
2. COc1cc2c(Oc3ccc4[nH]c(C)cc4c3F)ccnc2cc1OCC1(N)CC1 [anlotinib]
3. CN1CCC(Nc2ncc3ncnc(Nc4ccc(F)c(Cl)c4)c3n2)CC1 [BIBX-1382]
4. CCN[C@H]1CN(CCCOC)S(=O)(=O)c2sc(S(N)(=O)=O)cc21 [brinzolamide]
5. O=C1/C(=C/c2ccccc2)C[C@@]2(O)[C@H]3Cc4ccc(O)c5c4[C@@]2(CCN3CC2CC2)[C@H]1O5 [BNTX]
6. O=C(CCCCCCC(=O)NO)NO [SBHA]
7. Cc1cccc(C)c1NC(=O)[C@@H](C)N [tocainide]
8. CNC(=O)c1cccc2cc(Oc3ccnc4cc(OCC5(N)CC5)c(OC)cc34)ccc12 [lucitanib]

OUT:
100
99.4
98.9
106
97.5
98.2
104
99

I need cell viability for every entry listed below, if you could help.
1. NC(=O)C1CCCc2c1[nH]c1ccc(Cl)cc21 (stereo not drawn) [EX-527]
2. CNC[C@H](O)[C@@H](O)[C@H](O)[C@H](O)CO [meglumine]
3. COc1ccc(CN2CCN(C(c3ccc(F)cc3)c3ccc(F)cc3)CC2)c(OC)c1OC [lomerizine]
4. O=C1C2C=Nc3ccccc3C2=NN1c1ccc(Cl)cc1 (stereo not drawn) [CGS-9896]
5. NC[C@@](O)(c1ccc(Cl)cc1)c1ccc(-c2cn[nH]c2)cc1

OUT:
93.4
90.8
95.1
94
94.6

Give me cell viability for each of these molecules, listed below.
1. CN1CCC(=C2c3ccccc3CCn3c(C=O)cnc32)CC1 [alcaftadine]
2. O=S(=O)(c1ccccc1)N(CC(F)(F)F)c1ccc(C(O)(C(F)(F)F)C(F)(F)F)cc1
3. c1ccc(CNCc2ccc(CN3CCCNCCNCCCNCC3)cc2)nc1 [AMD-3465]
4. COC(=O)c1cc(OC)c2c(c1-c1c(C(=O)OC)cc(OC)c3c1OCO3)OCO2 [bifendate]
5. Clc1ccc(C2=CCC[C@H]3CC[C@@H]2N3)cn1 [UB-165]
6. COc1cc2ncn(-c3cc(OCc4ccccc4C(F)(F)F)c(C(N)=O)s3)c2cc1OC

OUT:
[97.7, 97.7, 99, 99.5, 97.5, 94.4]

Dear reader, for each entry below, please note its cell viability.
1. Cc1nc(C)c(C)nc1C [chuanxiongzine]
2. NS(=O)(=O)c1cc2c(cc1Cl)NC(C1CC3C=CC1C3)NS2(=O)=O (stereo not drawn) [cyclothiazide]

OUT:
101
94.3
